// data source = PubChem BioAssay AID1117319

I'd appreciate it if you could supply inhibition values for the items below.
Measured target: Virion infectivity factor (Human immunodeficiency virus type 1 group M subtype B (isolate BH10)) + Virion infectivity factor (Human immunodeficiency virus type 1 group M subtype B (isolate BRU/LAI)) + Virion infectivity factor (Human immunodeficiency virus type 1 group M subtype B (isolate PCV12)) + Virion infectivity factor (Human immunodeficiency virus type 1 group M subtype B (isolate HXB2)) + DNA dC->dU-editing enzyme APOBEC-3G (Homo sapiens) (UniProt P69720+P69721+P69722+P69723+Q9HC16)
Measurement protocol: inhibitors of Vif binding to APOBEC3G peptide, primary screen, biochemical, TR-FRET, GST-Vif 1-94, biotin-A3G peptide, dose response retest (AID 1117319);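 further: Vif residues 1-94 fused to GST binding biotinylated APOBEC3G peptide 110-148; 0% = full assay without inhibitor and 100% = GST in place of GST-Vif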
Experimental conditions: active compounds read high
Screen size: about 260,000 compounds; about 1,500 (0.58%) were called active. About 5% were inconclusive and are not listed. These entries were drawn from the full list. Measured potencies and affinities stand elsewhere.
Answers are plain numbers, in %.

Solved entries (count: 5):
Structure smiles	inhibition (%)
COc1ccc(N2CCN(Cc3cc(=O)oc4cc(C)c(Cl)c(C)c34)CC2)cc1	4.75
COc1ccc(C(=O)/C=C/c2ccc(OC)cc2OC)c(O)c1	-6.99
COc1cccc(/C=C/C(=O)c2cccc([N+](=O)[O-])c2)c1OC	-0.4
CC1=NN(c2ccc(C)cc2)C(=O)/C1=C\C=C\c1ccccc1	-3.38
CC1=NN(c2ccc(Cl)c(C(=O)O)c2)C(=O)/C1=C\c1ccc(-c2ccc(C(=O)O)cc2)o1	1.61

// batch mode: one inhibition value per listed entry
1. COc1ccc(/C=C/C(=O)c2ccccc2)c(OC)c1
2. O=C(Nc1ccc(S(=O)(=O)N2CCOCC2)cc1)c1cc(-c2ccccc2O)n[nH]1
3. CCOC(=O)c1[nH]c(C)c(C(=O)N(CC)CC)c1C
4. NNC(=O)/C=C/c1ccc(Cl)cc1Cl
5. CC[C@@H]1CCCCc2ccccc2[C@@H](C(=O)C[C@@H](O)CC(C)=O)OC1=O

1: 2.19; 2: -5.69; 3: 4.43; 4: -9.79; 5: -2.17

###

For each of the molecules below, state its inhibition.
Measured target: Virion infectivity factor (Human immunodeficiency virus type 1 group M subtype B (isolate BH10)) + Virion infectivity factor (Human immunodeficiency virus type 1 group M subtype B (isolate BRU/LAI)) + Virion infectivity factor (Human immunodeficiency virus type 1 group M subtype B (isolate PCV12)) + Virion infectivity factor (Human immunodeficiency virus type 1 group M subtype B (isolate HXB2)) + DNA dC->dU-editing enzyme APOBEC-3G (Homo sapiens) (UniProt P69720+P69721+P69722+P69723+Q9HC16)
Measurement protocol: inhibitors of Vif binding to APOBEC3G peptide, primary screen, biochemical, TR-FRET, GST-Vif 1-94, biotin-A3G peptide, dose response retest (AID 1117319)
Experimental conditions: active compounds read high
Out of some 260,000 compounds screened, about 1,500 (0.58%) were called active. Inconclusive results (about 5%) are left out. The list is a sample of the results. Results with a measured potency or affinity are listed apart.
One number for each entry, in %.

Molecule	Attribute measured	Uom	Measured
CCOc1ccc(NC(=O)CCS(=O)(=O)c2ccc(C)cc2)cc1	inhibition	%	-2.94

Answer for every listed entry: what is its inhibition? The entries follow.
1. CCc1ccc(N(C(=O)c2csnn2)C(C(=O)NC(C)(C)C)c2ccccn2)cc1 (stereo unspecified)
2. N#Cc1cccc(NC(=O)Cc2ccsc2)c1
3. Cc1cccc(C)c1NC(=O)CCS(=O)(=O)c1ccc(Br)cc1
4. CC(=O)c1ccc(NC(=S)N2CCCC(C(F)(F)F)C2)cc1 (stereo unspecified)
5. CCN1CCN(CC(=O)N2N=C(c3cccs3)CC2c2ccc(C)cc2)C(=O)C1=O (stereo unspecified)
6. Cc1cc(C)cc(NC(=O)c2ccc(NC(=O)C3C4CC5OC(=O)C3C5C4)cc2)c1 (stereo unspecified)

[0.91, 5.18, -1.3, -3.97, 1.42, -3.35]

# per-item lookup of inhibition; items listed below
1. CCOc1cccc2sc(N(CCCN(C)C)C(=O)c3ccc(S(=O)(=O)N4CCCCCC4)cc3)nc12
2. C=C(C1=CCN(S(=O)C(C)(C)C)[C@H]1CCO)c1ccccc1 (stereo partly specified)
3. Cc1cccc(NC(=O)CCS(=O)(=O)c2ccc(Br)cc2)c1
4. CCc1nc(SCC(=O)N2CCCC2)c2ccccc2n1

-5.19
-5.4
3.92
14.3

###

Measured target: Virion infectivity factor (Human immunodeficiency virus type 1 group M subtype B (isolate BH10)) + Virion infectivity factor (Human immunodeficiency virus type 1 group M subtype B (isolate BRU/LAI)) + Virion infectivity factor (Human immunodeficiency virus type 1 group M subtype B (isolate PCV12)) + Virion infectivity factor (Human immunodeficiency virus type 1 group M subtype B (isolate HXB2)) + DNA dC->dU-editing enzyme APOBEC-3G (Homo sapiens) (UniProt P69720+P69721+P69722+P69723+Q9HC16)
Measurement protocol: inhibitors of Vif binding to APOBEC3G peptide, primary screen, biochemical, TR-FRET, GST-Vif 1-94, biotin-A3G peptide, dose response retest (AID 1117319);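 further: Vif residues 1-94 fused to GST binding biotinylated APOBEC3G peptide 110-148; 0% = full assay without inhibitor and 100% = GST in place of GST-Vif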
Experimental conditions: active compounds read high
Screen size: about 260,000 compounds; about 1,500 (0.58%) were called active. Not shown: some 5% with an inconclusive outcome. A selection follows. Results with a measured potency or affinity are listed apart.
Give inhibition for every item shown.
Answers are plain numbers, in %.

// solved cases for inhibition follow
Compound	Uom	Measured
COc1cc(/C=C2\CC/C(=C\c3cc(OC)c(OC)c(OC)c3)C2=O)cc(OC)c1OC	%	2.04
COc1cc(/C=C2\CCC/C(=C\c3ccc(O)c(OC)c3)C2=O)ccc1O	%	3.35
CCC(=O)Nc1cccc(C2=NOC3(C2)C[C@@H](C(N)=O)N(C(=O)CC(c2ccccc2)c2ccccc2)C3)c1 (stereo not given in full)	%	7.06
COc1cc(C(=O)Oc2cccc(C=O)c2)cc(OC)c1OC	%	8.54
CCC(=O)Nc1nc2ccc([N+](=O)[O-])cc2s1	%	1.71
Cc1nc2ccccc2n1CCN1CCOCC1	%	-1
COc1cc(/C=C2/CC/C(=C/c3ccc(O)c(OC)c3)C2=O)ccc1O	%	32.3
Cc1ccc(C(=O)NC(=S)NNC(=O)COc2ccc([N+](=O)[O-])cc2)cc1	%	-1.27

Value sought for every listed compound: inhibition.
1. COc1ccc(S(=O)(=O)N2CCOCC2)cc1C(=O)Nc1cc(C)on1
2. NS(=O)(=O)c1cc(Br)c2c(c1)S(=O)(=O)NCN2

1. 2.2
2. -0.53

###

Kindly state inhibition for each of the entries shown.
Measured target: Virion infectivity factor (Human immunodeficiency virus type 1 group M subtype B (isolate BH10)) + Virion infectivity factor (Human immunodeficiency virus type 1 group M subtype B (isolate BRU/LAI)) + Virion infectivity factor (Human immunodeficiency virus type 1 group M subtype B (isolate PCV12)) + Virion infectivity factor (Human immunodeficiency virus type 1 group M subtype B (isolate HXB2)) + DNA dC->dU-editing enzyme APOBEC-3G (Homo sapiens) (UniProt P69720+P69721+P69722+P69723+Q9HC16)
Measurement protocol: inhibitors of Vif binding to APOBEC3G peptide, primary screen, biochemical, TR-FRET, GST-Vif 1-94, biotin-A3G peptide, dose response retest (AID 1117319);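 further: Vif residues 1-94 fused to GST binding biotinylated APOBEC3G peptide 110-148; 0% = full assay without inhibitor and 100% = GST in place of GST-Vif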
Experimental conditions: active compounds read high
The campaign covered roughly 260,000 compounds. About 1,500 (0.58%) were called active. Not shown: some 5% with an inconclusive outcome. Only a sample is shown. Measured potencies and affinities stand elsewhere.
Answers are plain numbers, in %.

Structure smiles	inhibition (%)
Cc1cc(=O)[nH]c(SCCCOc2ccccc2Cl)n1	-1.03
Cc1cccc(N=CC=C2OC(C)(C)C(C)(C)O2)c1	-6.65
O=[n+]1c2c(n([O-])c3c1CCCC3)CCCC2	3.36
Cc1ccc2c(c1)n([O-])c1c([n+]2=O)CCCC1	1.62
O=C(N/N=C/C=C/c1ccccc1)c1ccncc1	-6.12
O=C(C=Cc1ccco1)c1ccco1	3.42

Could you report inhibition for every entry in the following list?
1. O=C(/C=C/c1ccco1)Nc1cccnc1
2. O=[n+]1c2c(n([O-])c3cc(F)c(N4CCCC4)cc31)CCC2
3. CCOc1ccc2c(c1)n([O-])c1c([n+]2=O)CCCC1
4. O=[n+]1c2c(n([O-])c3cc(Br)ccc31)CCCC2
5. CCCCN(C(=O)C(C)(C)Oc1ccc(Cl)cc1)c1c(N)n(CCC)c(=O)[nH]c1=O

1: 1; 2: 25.7; 3: 23.4; 4: 30; 5: -3.39

So what's the measured inhibition for this one? O=[n+]1c2c(n([O-])c3ccccc31)CCCC2
9.07

###

Measured target: Virion infectivity factor (Human immunodeficiency virus type 1 group M subtype B (isolate BH10)) + Virion infectivity factor (Human immunodeficiency virus type 1 group M subtype B (isolate BRU/LAI)) + Virion infectivity factor (Human immunodeficiency virus type 1 group M subtype B (isolate PCV12)) + Virion infectivity factor (Human immunodeficiency virus type 1 group M subtype B (isolate HXB2)) + DNA dC->dU-editing enzyme APOBEC-3G (Homo sapiens) (UniProt P69720+P69721+P69722+P69723+Q9HC16)
Measurement protocol: inhibitors of Vif binding to APOBEC3G peptide, primary screen, biochemical, TR-FRET, GST-Vif 1-94, biotin-A3G peptide, dose response retest (AID 1117319);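 further: Vif residues 1-94 fused to GST binding biotinylated APOBEC3G peptide 110-148; 0% = full assay without inhibitor and 100% = GST in place of GST-Vif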
Experimental conditions: active compounds read high
In all, about 260,000 compounds went through this assay and about 1,500 (0.58%) were called active. Not shown: some 5% with an inconclusive outcome. Only a sample is shown. Entries with a potency or affinity are not part of this list.
Attribute measured: inhibition (%)
Numbers only, in %.

Study these solved cases before continuing.
Compound	inhibition [%]
CCN(CC(=O)Nc1c(F)cccc1F)C(=O)c1c(-c2ccccc2Cl)noc1C	10.1
O=C1CC(=O)N(Cc2cccs2)C(=O)N1	18
COc1ccccc1C(=O)NCCC(=O)Nc1ccc(S(=O)(=O)N2CC(C)CC(C)C2)cc1 (configuration not stated)	-5.91
Cc1ccc(OCc2n[nH]c(=S)n2Cc2ccccc2)cc1	24.6

Could you report inhibition for every entry in the following list?
1. O=C(COC(=O)c1cc(=O)[nH]c2ccccc12)NC1CCCC1
2. CC1CN(Cc2ccco2)C(=S)NC1=O (configuration not stated)
3. CCN(CC(=O)Nc1c(C(=O)OC)[nH]c2ccc(Cl)cc12)c1ccc2c(c1)OCO2
4. O=c1cc(CSc2nnc(Nc3ccccc3F)s2)nc2sccn12
5. CC(C)(C)c1ccc(/C=C/C(=O)N2CCc3ccccc3C2)cc1
6. C/C(=N\NC(=O)CCc1ccc(S(=O)(=O)N2CCOCC2)cc1)c1ccc(OC(F)F)cc1
7. COC(=O)C1=C(N)N(c2ccc(F)cc2)C2=C(C(=O)CCC2)C1c1ccc2c(c1)OCO2 (configuration not stated)

1: 8.34; 2: 1.05; 3: 0.99; 4: -10.7; 5: 7.01; 6: 18.9; 7: -32.1

// for each compound below, give its inhibition
1. CC(Oc1ccccc1F)C(=O)NNC(=O)CCS(=O)(=O)c1ccccc1Cl (configuration not stated)
2. COC(=O)c1[nH]c2ccccc2c1NC(=O)CN1CCN(Cc2ccc3c(c2)OCO3)CC1
3. NS(=O)(=O)c1ccc(N=Nc2c(O)ccc3ccccc23)cc1
4. Cc1ccc(/C=C/C(=O)N2CCc3ccccc3C2)cc1
5. Cc1cc(N/N=C/c2ccc(N(C)C)cc2)nc(NCc2ccccc2)n1

3.79
-1.82
9.6
0
7.69

Give inhibition for each listed item.
1. COc1cc(C(=O)NC(=S)NCc2ccco2)cc(OC)c1OC
2. CCOc1ncccc1C(=O)NCCN1C(=O)S/C(=C/c2cccs2)C1=O
3. CCN1C(=O)c2ccc(C(=O)NCc3ccc4c(c3)OCO4)cc2C1=O
4. [O-][n+]1c2ccc3nonc3c2nn1-c1ccccc1Cl
5. Cc1c(C#N)c(O)[nH]c(=O)c1N=Nc1ccc(S(N)(=O)=O)cc1

1: 5.31; 2: 17.3; 3: -10.4; 4: -0.31; 5: 3.16

Param item = Cn1cc(CCNCc2cn[nH]c2-c2ccc(-c3ccccc3)cc2)cn1 ; retrieve measured inhibition.
-3.24
